target: MRGPRX4 (Homo sapiens); construct: expressed in transfected cells; host or cells: HEK293T; experiment: IP1 accumulation HTRF assay, MRGPRX4; type: cell-based; settings: construct FLAG-MRGPRX4-GFP10-1D4 (Fig. S4A-F); read-out: IP1 EC50
OBSERVED PROPERTY: EC50
# answer = value followed by unit

Prompt line: // fetch EC50 given entry CC(C)[C@H]1CC[C@H](C(=O)N[C@H](Cc2ccccc2)C(=O)O)CC1 [Nateglinide]
Response line: 9.91 µM

###

target: MRGPRX4 + RAMP1 (Homo sapiens, UniProt Q96LA9); construct: expressed in transfected cells; host or cells: HEK293T; experiment: IP1 accumulation, MRGPRX4 coexpressed with RAMP1; format: cell-based; conditions: Tet-On MRGPRX4:RAMP1 Ratio 1:0.5 (Fig. S5D); read-out: IP1 EC50
Sequence (Q96LA9 whole entry): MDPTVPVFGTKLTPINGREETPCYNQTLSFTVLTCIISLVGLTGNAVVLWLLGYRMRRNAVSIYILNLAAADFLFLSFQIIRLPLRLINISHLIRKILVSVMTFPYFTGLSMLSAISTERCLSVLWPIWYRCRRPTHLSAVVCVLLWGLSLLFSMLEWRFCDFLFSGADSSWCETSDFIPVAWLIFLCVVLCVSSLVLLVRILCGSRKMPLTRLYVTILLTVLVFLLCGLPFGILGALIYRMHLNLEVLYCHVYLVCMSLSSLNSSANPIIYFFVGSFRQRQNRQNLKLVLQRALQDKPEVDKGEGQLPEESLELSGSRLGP
OBSERVED PROPERTY: EC50 (µM)
Please give a number only; it is taken to be in µM.

Prompt line: Look up EC50 of CC(C)[C@H]1CC[C@H](C(=O)N[C@H](Cc2ccccc2)C(=O)O)CC1 [Nateglinide] and report it.
Response line: 8.42
